growth reference
# System: NCI-H322M lung
# EXPERIMENTAL PROTOCOL: NCI-60 one-dose screen, 48 h (100 = growth as untreated, 0 = no growth, -100 = all killed)
# MEASUREMENT PARAMETERS: 10 µM unless noted
About 83,000 compounds went through this panel and 20% of them were active in at least one assay; those are over-represented in the sample as a whole. The source made the active and inactive calls. Rule for the calls: active = growth percent below 10; inactive = the rest.

COc1cc(C2CC(c3cccc(Nc4ccnc5cc(Cl)ccc45)c3)=NN2C=O)cc(OC)c1OC (stereo not given) | 32.5% (inactive)
CC(C)c1ccc2c(c1)CCC1C2CCCC1(C)NCc1ccccc1 (stereo not given) | 32.6% (inactive)
COc1ccc2c(c1)N(Cc1ccc(Cl)cc1)CCC2N1CCCC1=O (stereo not given) | 39.9% (inactive)
COc1cc(C2CC(c3ccc(C)cc3)=NN2C=O)ccc1Oc1ccnc2cc(Cl)ccc12 (stereo not given) | 91.1% (inactive)
c1cc(C2CCCCC2)ccc1-c1cnc2nonc2n1 | 50.1% (inactive)
COc1ccc(C(=O)N2N=C(c3ccc(F)cc3)CC2c2cn(-c3ccccc3)nc2-c2ccccc2)cc1 (stereo not given) | 80% (inactive)
CCCCCCCCCCCCNC(=O)N[C@H](C(=O)N[C@H]1/C=C/CCNC(=O)/C=C/[C@H](C)NC1=O)C(C)C | 3.54% (active)
COc1cccc(C2C(C#N)=C(N)Oc3cc4c(cc32)OCO4)c1 (stereo not given) | 37.6% (inactive)

Problem: Data request, read-out growth, for C=C1C(=O)O[C@H]2[C@H]1CC/C(COC(=O)NCc1cn(C)c3ccccc13)=C\CC[C@@]1(C)O[C@@H]21
Result: 80.6% (inactive)

Problem: Data request, read-out growth, for C=CCN1C(=O)/C(=c2\sc3n(c2=O)C2C(NN=3)N(CC)C(=O)N2CC)c2ccccc21 (stereo not given)
Result: 49.4% (inactive)

Problem: Data request, read-out growth, for CN1C2CCC1/C(=C\c1ccc(F)cc1)C(=O)/C2=C/c1ccc(F)cc1
Result: 50.3% (inactive)

Problem: Data request, read-out growth, for COc1ccc(N=C2CSc3nnc(-c4cc(F)c(Cl)cc4Cl)n3N2)cc1
Result: 6.08% (active)

Problem: Data request, read-out growth, for COc1cc([N+](=O)[O-])cc(OC)c1OC
Result: 109% (inactive)

Problem: Data request, read-out growth, for COC(=O)OC1C(O[C@H]2C[C@H]3[C@@H]4CC=C5C[C@@H](O)CC[C@]5(C)[C@H]4CC[C@]3(C)[C@H]2[C@H](C)C(=O)CCC(C)C)OCC(O)C1OC1OCC(O)C(O)C1OC(=O)c1ccc(OC)cc1 (stereo not given in full)
Result: 45.2% (inactive)

Problem: Data request, read-out growth, for COc1cc(CN(c2ccc(C)cc2)C2OC(=O)c3ccccc32)cc(OC)c1OC (stereo not given)
Result: 60.2% (inactive)

Problem: Data request, read-out growth, for N=C(N)c1ccc(NCCNc2ccc(C(=N)N)cc2)cc1
Result: 95.5% (inactive)

Problem: Data request, read-out growth, for CN1C(=O)N(C)C2C1NN=c1s/c(=C\c3ccc(C(F)(F)F)cc3)c(=O)n12 (stereo not given)
Result: 32.4% (inactive)

Problem: Data request, read-out growth, for Cc1cc(Nc2c3ccccc3nc3ccccc23)ccc1NS(C)(=O)=O
Result: 34.3% (inactive)

Problem: Data request, read-out growth, for COc1ccc(C(=O)C(CN(C)C)c2ccc(OC)cc2)cc1 (stereo not given)
Result: 93.2% (inactive)

Problem: Data request, read-out growth, for CCCCCCCCCCCCCCCC1=NC(C)(C)CN1C(C)C
Result: 34.6% (inactive)
